target: T1, shFcRn (soluble human FcRn) (human, UniProt P55899 24-297; P61769 21-119); experiment: SPR, shFcRn immobilized on chip, antibody as analyte, pH 7.4;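 further: kinetics fitted with a 1:1 Langmuir model, association 200 s and dissociation 600 s in PBST, double-referenced against buffer-only and interspot signals, values averaged over repeated runs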
T1 construct: extracellular domain; Printed only as 'soluble human FcRn'; also called hFcRn (immobilized on a chip)
T1 sequence (P55899 24-297 limits assumed, chain 1 of 2): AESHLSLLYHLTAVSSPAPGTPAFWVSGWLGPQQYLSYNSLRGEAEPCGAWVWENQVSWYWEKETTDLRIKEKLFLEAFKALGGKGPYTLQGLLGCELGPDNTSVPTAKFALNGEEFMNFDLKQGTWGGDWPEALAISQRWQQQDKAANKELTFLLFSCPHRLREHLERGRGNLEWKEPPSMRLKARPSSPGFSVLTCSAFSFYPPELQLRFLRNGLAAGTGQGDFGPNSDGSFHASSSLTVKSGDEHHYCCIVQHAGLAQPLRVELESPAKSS
T1 sequence (P61769 21-119 limits assumed, chain 2 of 2): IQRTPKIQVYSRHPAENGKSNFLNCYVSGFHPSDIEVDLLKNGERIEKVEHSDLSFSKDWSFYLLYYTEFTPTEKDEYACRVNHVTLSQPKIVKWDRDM
VALUE_KIND: kon
Value and unit, in that order.

# input binder: HL161AN variant No. 21 (LC:N25Q, HC:C32Y Q82T) (antibody, human IgG1, V domains shown, Variable domains only) VL: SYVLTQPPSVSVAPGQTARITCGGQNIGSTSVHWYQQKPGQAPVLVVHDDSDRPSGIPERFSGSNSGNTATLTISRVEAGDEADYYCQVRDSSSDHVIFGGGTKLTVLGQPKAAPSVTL VH: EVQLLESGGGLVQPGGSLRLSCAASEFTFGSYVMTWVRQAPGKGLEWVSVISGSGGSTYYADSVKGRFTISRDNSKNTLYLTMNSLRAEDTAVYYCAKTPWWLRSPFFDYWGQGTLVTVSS ; wanted: its kon 2.39e+06 M⁻¹ s⁻¹

Any idea what its kon is? The binder is HL161AN variant No. 18 (LC:N25Q, HC:C32S Q82T) (antibody, human IgG1, V domains shown, Variable domains only) VL: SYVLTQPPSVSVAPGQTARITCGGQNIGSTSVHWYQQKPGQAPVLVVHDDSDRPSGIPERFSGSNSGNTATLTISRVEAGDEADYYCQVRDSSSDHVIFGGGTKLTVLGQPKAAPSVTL VH: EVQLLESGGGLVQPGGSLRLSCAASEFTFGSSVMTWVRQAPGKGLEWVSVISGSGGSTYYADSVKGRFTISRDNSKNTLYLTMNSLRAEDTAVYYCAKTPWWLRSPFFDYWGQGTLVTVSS 2.39e+06 M⁻¹ s⁻¹

Sample HL161AN variant No. 5 (LC:N25S, HC:Q82E) (antibody, human IgG1, V domains shown, Variable domains only) VL: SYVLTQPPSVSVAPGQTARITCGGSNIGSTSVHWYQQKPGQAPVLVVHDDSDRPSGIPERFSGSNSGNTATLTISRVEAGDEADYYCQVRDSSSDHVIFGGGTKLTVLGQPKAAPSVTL VH: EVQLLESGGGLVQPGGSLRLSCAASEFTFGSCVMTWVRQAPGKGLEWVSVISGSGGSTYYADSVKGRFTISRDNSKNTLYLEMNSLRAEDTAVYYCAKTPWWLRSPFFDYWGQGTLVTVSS — what was its kon? 1.17e+06 M⁻¹ s⁻¹

Query: kon; subject: HL161AN variant No. 15 (LC:N25Q, HC:Q82T) (antibody, human IgG1, V domains shown, Variable domains only) VL: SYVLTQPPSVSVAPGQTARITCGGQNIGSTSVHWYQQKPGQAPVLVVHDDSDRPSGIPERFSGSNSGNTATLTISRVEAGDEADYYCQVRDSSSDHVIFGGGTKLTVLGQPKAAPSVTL VH: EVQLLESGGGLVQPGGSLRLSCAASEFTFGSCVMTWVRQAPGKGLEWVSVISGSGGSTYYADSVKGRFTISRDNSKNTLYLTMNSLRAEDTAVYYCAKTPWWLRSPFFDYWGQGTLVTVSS 1.84e+06 M⁻¹ s⁻¹

Which kon value is on record for HL161AN variant No. 17 (LC:N25Q, HC:C32S Q82S) (antibody, human IgG1, V domains shown, Variable domains only) VL: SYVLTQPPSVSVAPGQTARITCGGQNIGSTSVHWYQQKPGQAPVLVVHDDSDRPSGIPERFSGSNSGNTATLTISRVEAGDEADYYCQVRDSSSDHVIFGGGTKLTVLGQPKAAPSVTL VH: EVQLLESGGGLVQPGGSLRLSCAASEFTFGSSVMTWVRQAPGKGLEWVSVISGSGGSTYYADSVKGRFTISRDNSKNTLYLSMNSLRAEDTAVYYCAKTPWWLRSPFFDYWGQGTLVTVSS ? 2.27e+06 M⁻¹ s⁻¹
